- experimental.target: UniProtKB P03956
- method: MMP-1 inhibition (thiopeptide or fluorescent peptide substrate)
- Format: biochemical
- condition.label: read-out: MMP-1 IC50
pIC50: −log10 of the molar value. Counter-ions that a name gives are not always drawn.
endpoint.label: pIC50

C#CCN(C(C(=O)NO)C(C)C)S(=O)(=O)c1ccc(OCC#CC)cc1 (centres unmarked): 6.68
CC#CCOc1ccc(S(=O)(=O)N(C)C(C(=O)NO)C(C)(C)SC)cc1 (centres unmarked): 7.77
CC#CCOc1ccc(S(=O)(=O)N(Cc2cccnc2)C(C(=O)NO)C(C)C)cc1 (centres unmarked): 6.63
CC#CCOc1ccc(S(=O)(=O)N(C)[C@@H](C(=O)NO)C2CCC(N(CC)CC)CC2)cc1 (some centres unmarked): 5.63
CC#CCOc1ccc(S(=O)(=O)N2CCN(C(C)=O)CC2C(=O)NO)cc1 (centres unmarked): 6.45

(I) CC#CCOc1ccc(S(=O)(=O)N(C)C(C(=O)NO)c2ccc(OCCCNC(=O)OC(C)(C)C)cc2)cc1 (centres unmarked)
(II) CC#CCOc1ccc(S(=O)(=O)NC(C(=O)NO)C(C)(C)SCC(=O)O)cc1 (centres unmarked) [Example 166, Acetic Acid, Sodium Salt]
Exam item: Smaller pIC50 value, I vs II ? Indicate which entry you chose by stating its label.
Marked response: II

###

- experimental.target: MMP-9 (Homo sapiens)
- Sequence (P14780 94-707): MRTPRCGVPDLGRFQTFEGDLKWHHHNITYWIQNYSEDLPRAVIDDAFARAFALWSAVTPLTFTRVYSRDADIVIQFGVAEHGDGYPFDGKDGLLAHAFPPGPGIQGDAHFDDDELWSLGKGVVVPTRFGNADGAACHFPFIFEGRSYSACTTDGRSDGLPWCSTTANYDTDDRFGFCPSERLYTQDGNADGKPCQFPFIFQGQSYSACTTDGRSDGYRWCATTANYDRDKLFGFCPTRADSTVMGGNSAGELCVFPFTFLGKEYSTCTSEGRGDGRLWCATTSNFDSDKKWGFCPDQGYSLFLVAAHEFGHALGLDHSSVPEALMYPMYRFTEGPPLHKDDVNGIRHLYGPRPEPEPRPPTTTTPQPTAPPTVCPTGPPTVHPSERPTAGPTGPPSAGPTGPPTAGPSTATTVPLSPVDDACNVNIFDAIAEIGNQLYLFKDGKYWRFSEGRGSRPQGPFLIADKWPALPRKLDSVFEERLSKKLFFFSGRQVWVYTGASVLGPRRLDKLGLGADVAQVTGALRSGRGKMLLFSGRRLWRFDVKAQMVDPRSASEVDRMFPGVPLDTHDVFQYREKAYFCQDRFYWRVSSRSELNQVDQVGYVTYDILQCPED
- method: MMP-9 inhibition (thiopeptide or fluorescent peptide substrate)
- Assay type: biochemical
- condition.label: Table 10; read-out: MMP-9 IC50
endpoint.label: IC50 (nM)

CC1(C)SCCN(S(=O)(=O)c2ccc(OCC#CCCN)cc2)C1C(=O)NO (stereo not shown) [Example 246]: 41

(A) CC(C)(C)OC(=O)NCCC#CCOc1ccc(S(=O)(=O)N2CCSC(C)(C)C2C(=O)NO)cc1 (stereo not shown) [Example 245]
(B) CC1(C)SCCN(S(=O)(=O)c2ccc(OCC#CCOCc3ccccc3)cc2)C1C(=O)NO (stereo not shown) [Example 247]
(C) CC1(C)SCCN(S(=O)(=O)c2ccc(OCC#CCN)cc2)C1C(=O)NO (stereo not shown) [Example 265]
Exam item: Hello, I need these entries ordered by IC50, highest reading first. Thanks! Please list the labels according to the requested order.
Marked response: A, B, C

###

- experimental.target: MMP-1 (Homo sapiens, UniProt P03956)
- Sequence (P03956 100-469): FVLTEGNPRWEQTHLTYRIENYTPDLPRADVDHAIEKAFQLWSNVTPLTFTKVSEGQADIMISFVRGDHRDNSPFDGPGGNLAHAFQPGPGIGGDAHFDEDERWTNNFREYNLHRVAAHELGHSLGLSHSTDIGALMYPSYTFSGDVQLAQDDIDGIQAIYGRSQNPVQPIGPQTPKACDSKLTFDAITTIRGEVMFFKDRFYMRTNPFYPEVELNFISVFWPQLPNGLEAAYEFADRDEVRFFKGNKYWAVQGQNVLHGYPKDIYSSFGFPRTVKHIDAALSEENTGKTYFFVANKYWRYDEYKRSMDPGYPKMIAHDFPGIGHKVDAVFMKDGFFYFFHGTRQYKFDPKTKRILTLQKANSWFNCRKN
- method: MMP-1 inhibition (thiopeptide or fluorescent peptide substrate)
- Type: biochemical
- condition.label: read-out: MMP-1 IC50
endpoint.label: IC50 (nM)

CC#CCOc1ccc(S(=O)(=O)N2CCN(Cc3ccc(Br)cc3)CC2C(=O)NO)cc1 (stereo not shown) [Example 233]: 2830

(1) CC#CCOc1ccc(S(=O)(=O)N2CCN(Cc3ccccc3)CCC2C(=O)NO)cc1 (stereo not shown) [Example 290]
(2) CC#CCOc1ccc(S(=O)(=O)N[C@@H](C(=O)NO)C(C)(C)SCCCO)cc1 [Example 171]
Exam item: Determine, for 1 and 2 , which has the greater value of IC50. State your choice using its label.
Marked response: 2

###

- experimental.target: MMP-9 (Homo sapiens)
- method: MMP-9 inhibition (thiopeptide or fluorescent peptide substrate)
- Format: biochemical
- condition.label: MMP-9 IC50, Table 10
endpoint.label: IC50 (nM)
# output: bare number, implied unit nM

Exam item: Fill blank: measured IC50 of the compound CC1(C)SCCN(S(=O)(=O)c2ccc(OCC#CCO)cc2)C1C(=O)NO (stereo not shown) [Example 61] is ____.
Marked response: 70

###

- experimental.target: MMP-9 (Homo sapiens)
- method: MMP-9 inhibition (thiopeptide or fluorescent peptide substrate)
- Type: biochemical
- condition.label: Table 11; read-out: MMP-9 IC50
pIC50: −log10 of the molar value. Counter-ions that a name gives are not always drawn.
endpoint.label: pIC50

Sample records with pIC50:
CC#CCOc1ccc(S(=O)(=O)N2C[C@H](C)SC(C)(C)[C@@H]2C(=O)NO)cc1: 6.78
CC#CCOc1ccc(S(=O)(=O)N2C[C@@H](CNC(=O)OC(C)(C)C)SC(C)(C)[C@@H]2C(=O)NO)cc1: 7.21
CC#CCOc1ccc(S(=O)(=O)N2C[C@H](CNC(=O)OC(C)(C)C)SC(C)(C)[C@@H]2C(=O)NO)cc1: 6.97

(A) CC#CCOc1ccc(S(=O)(=O)N2C[C@H](CN)SC(C)(C)[C@@H]2C(=O)NO)cc1 [Example 276, Hydrochloride]
(B) CC#CCOc1ccc(S(=O)(=O)N2C[C@@H](CN)SC(C)(C)[C@@H]2C(=O)NO)cc1 [Example 275, Hydrochloride]
Exam item: Which is greater in pIC50, the first item A or the second item B ? Output the label that corresponds to your choice.
Marked response: B
(B: 7.66, A: 7.08)

###

- experimental.target: MMP-1 (Homo sapiens)
- method: MMP-1 inhibition (thiopeptide or fluorescent peptide substrate)
- Type: biochemical
- condition.label: Table 11; read-out: MMP-1 IC50
pIC50: −log10 of the molar value. Structures can show the parent of a compound that is named as a salt.
endpoint.label: pIC50

CC#CCOc1ccc(S(=O)(=O)N2C[C@H](CC(=O)N3CCN(C)CC3)SC(C)(C)[C@@H]2C(=O)NO)cc1 [Example 283, hydrochloride]: 7.55

(A) CC#CCOc1ccc(S(=O)(=O)N2C[C@H](CC(=O)OC(C)(C)C)SC(C)(C)[C@@H]2C(=O)NO)cc1
(B) CC#CCOc1ccc(S(=O)(=O)N2C[C@@H](CN)SC(C)(C)[C@@H]2C(=O)NO)cc1 [Example 275, Hydrochloride]
Exam item: Thinking about recorded pIC50 values, which is higher, A or B ? // return label of chosen record
Marked response: A

###

- experimental.target: TNF-α converting enzyme (TACE) (Homo sapiens)
- Sequence (P78536 215-824, species assumed): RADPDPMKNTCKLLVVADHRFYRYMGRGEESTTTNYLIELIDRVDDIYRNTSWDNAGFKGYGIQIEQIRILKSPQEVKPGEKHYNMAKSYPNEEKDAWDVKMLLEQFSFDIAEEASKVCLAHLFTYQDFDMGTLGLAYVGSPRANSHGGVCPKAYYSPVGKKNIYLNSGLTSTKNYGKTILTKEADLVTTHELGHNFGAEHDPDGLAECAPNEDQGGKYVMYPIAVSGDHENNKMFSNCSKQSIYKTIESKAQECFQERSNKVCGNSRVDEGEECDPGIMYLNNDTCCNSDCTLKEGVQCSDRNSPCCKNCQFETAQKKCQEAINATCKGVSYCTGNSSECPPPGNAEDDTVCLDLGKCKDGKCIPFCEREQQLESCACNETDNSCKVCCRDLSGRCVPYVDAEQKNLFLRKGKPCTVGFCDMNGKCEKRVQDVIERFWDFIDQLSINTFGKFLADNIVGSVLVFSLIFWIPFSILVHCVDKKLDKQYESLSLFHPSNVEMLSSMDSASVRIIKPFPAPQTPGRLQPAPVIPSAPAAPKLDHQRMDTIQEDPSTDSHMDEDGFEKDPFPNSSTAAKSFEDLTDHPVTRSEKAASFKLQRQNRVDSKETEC
- method: TACE inhibition (fluorescent peptidyl substrate)
- Format: biochemical
- condition.label: IC 50 nM (In Vitro Inhibition of TACE), Table 15
endpoint.label: IC50 (nM)

CC#CCOc1ccc(S(=O)(=O)N[C@H](Cc2ccccc2)C(=O)NO)cc1: 4.99
CC#CCOc1ccc(S(=O)(=O)N[C@H](CCCCNC(=O)c2ccccc2)C(=O)NO)cc1: 6.28
CC#CCOc1ccc(S(=O)(=O)N[C@H](CCCCNC(=O)c2ccncc2)C(=O)NO)cc1: 9.28
CC#CCOc1ccc(S(=O)(=O)N[C@H](CCC(N)=O)C(=O)NO)cc1: 27.4
CC#CCOc1ccc(S(=O)(=O)N[C@@H](CC(=O)OC2CCCCC2)C(=O)NO)cc1: 885

(a) CC#CCOc1ccc(S(=O)(=O)N2CSC[C@@H]2C(=O)NO)cc1
(b) CC#CCOc1ccc(S(=O)(=O)N2C[C@@H](O)C[C@@H]2C(=O)NO)cc1
Exam item: Quick one: lower IC50, a or b ? Mark your selection by writing its label.
Marked response: a
(a: 14.7 nM, b: 29.4 nM)

###

- experimental.target: TNF-α converting enzyme (TACE) (Homo sapiens)
- method: TACE inhibition (fluorescent peptidyl substrate)
- Type: biochemical
- condition.label: IC 50 nM (In Vitro Inhibition of TACE), Table 15
endpoint.label: IC50 (nM)

CC#CCOc1ccc(S(=O)(=O)N[C@H](CCCCNC(=O)Cc2ccc([N+](=O)[O-])cc2)C(=O)NO)cc1 [Example 362]: 4.55
CC#CCOc1ccc(S(=O)(=O)N[C@H](CCCNC(=O)N(CC)CC)C(=O)NO)cc1 [Example 373]: 16.9

(A) CC#CCOc1ccc(S(=O)(=O)N[C@H](CCCNC(=O)/C=C/c2ccccc2)C(=O)NO)cc1 [Example 348]
(B) CC#CCOc1ccc(S(=O)(=O)N[C@H](CCCCNC(=O)Cc2ccc(Cl)c(Cl)c2)C(=O)NO)cc1 [Example 355]
Exam item: // returns A or B , whichever has the lower IC50 Answer with the label corresponding to your selection.
Marked response: A
(A: 6.25 nM, B: 12.4 nM)

###

- experimental.target: MMP-1 (Homo sapiens)
- method: MMP-1 inhibition (thiopeptide or fluorescent peptide substrate)
- Assay type: biochemical
- condition.label: read-out: MMP-1 IC50
pIC50: −log10 of the molar value.
endpoint.label: pIC50

In the examples that follow, each entry is paired with its recorded pIC50.
CC#CCOc1ccc(S(=O)(=O)N(C)C(C(=O)NO)c2ccc(OCCN3CCNCC3)cc2)cc1 (stereo not shown) [Example 186]: 6.25
CC#CCOc1ccc(S(=O)(=O)N(C)C(C(=O)NO)C(C)(C)SCCN2CCN(C)CC2)cc1 (stereo not shown) [Example 141]: 7.77
CC#CCOc1ccc(S(=O)(=O)NC2(C(=O)NO)CCCCC2)cc1 [Example 138]: 5.29
CC#CCOc1ccc(S(=O)(=O)NC(C(=O)NO)C(C)(C)SCCC)cc1 (stereo not shown) [Example 160]: 5.85
CC#CCOc1ccc(S(=O)(=O)N2CCN(C(=O)N(C(C)C)C(C)C)CC2C(=O)NO)cc1 (stereo not shown) [Example 218]: 5.48
CC#CCOc1ccc(S(=O)(=O)N2CCN(C(=O)CNC(=O)OC(C)(C)C)CC2C(=O)NO)cc1 (stereo not shown) [Example 229]: 6.00

(1) CC#CCOc1ccc(S(=O)(=O)NC(C(=O)NO)C(C)(C)SCc2nccn2C)cc1 (stereo not shown) [Example 163]
(2) CC#CCOc1ccc(S(=O)(=O)N(C)C(C(=O)NO)c2ccc(OCCNC(=O)OC(C)(C)C)cc2)cc1 (stereo not shown) [Example 180]
Exam item: Just curious, which one has the larger pIC50 reading, 1 or 2 ? Choose, then provide that item's label.
Marked response: 2
(2: 6.22, 1: 5.76)
